System: TGF-β-stimulated SMAD3 phosphorylation in BEAS-2B cells
Assay: Cellular ALK5 potency assay, inhibition of TGF-β stimulated pSMAD3 formation in BEAS-2B cells
Type: cell-based
Conditions: Homo sapiens, inhibition of TGF-β (10 ng/mL) stimulated pSMAD3 formation, 1 hour compound incubation, read-out: BEAS2B pIC50 (converted)
measured-property: IC50

Please report IC50 with TGF-β-stimulated SMAD3 phosphorylation in BEAS-2B cells for item `COCc1cccc(-c2n[nH]cc2-c2ccc3ncc(N4CCC(N5CCN(C)CC5)CC4)cc3n2)c1` . 25.1 to 158 nM

Please report IC50 with TGF-β-stimulated SMAD3 phosphorylation in BEAS-2B cells for item `COC(=O)N1CCc2nnc(-c3cnc4ccc(-c5c[nH]nc5-c5cc(Cl)c(F)cc5F)nc4c3)cc2C1` . 25.1 to 158 nM

Please report IC50 with TGF-β-stimulated SMAD3 phosphorylation in BEAS-2B cells for item CN1CCC(Nc2cnc3ccc(-c4c[nH]nc4-c4cc(Cl)ccc4F)nc3c2)C1 (stereo not shown) . 25.1 to 158 nM

Please report IC50 with TGF-β-stimulated SMAD3 phosphorylation in BEAS-2B cells for item Fc1ccc(Cl)cc1-c1n[nH]cc1-c1ccc2ncc(NCC3CCCNC3)cc2n1 (stereo not shown) . 200 to 1260 nM
